Documented Percent Effect across a set of molecules
System: Wolbachia pipientis
PROTOCOL_SUMMARY: Anti-Wolbachia Cell-Based Screen
Type: functional
Design: scale not given: in the data most compounds retested in dose-response had high values
EXPERIMENTAL_PARAMETERS: 5 µM
Screen size: about 48,000 compounds; about 13,000 (27%) showed an effect of 50% or more. The list shows a part of the results.
MEASURED_ENDPOINT: Percent Effect (%)

CCS(=O)(=O)N1CCC2(CC(=O)N(c3cccc(C)c3)C2)C1 (stereo unspecified) : -28.77
O=C(c1ccc(Cl)cc1)N1CCC2(C1)C(=O)Nc1ccccc12 (stereo unspecified) : 123
O=C(N1CCCC1)N1CCC2(CC(=O)N(c3ccc4c(c3)OCO4)C2)C1 (stereo unspecified) : -19.45
O=C1CC2(CCN(c3nncs3)C2)CN1c1cncnc1 (stereo unspecified) : 102.2
O=C1CC2(CCN(c3nncs3)C2)CN1c1cccc(F)c1 (stereo unspecified) : 96.11
CCS(=O)(=O)N1CCC2(CC(=O)N(c3cncnc3)C2)C1 (stereo unspecified) : -9.187
O=C1CC2(CCN(c3nncs3)C2)CN1c1ccccc1 (stereo unspecified) : 7.339
O=C1CC2(CCN(S(=O)(=O)C3CC3)C2)CN1c1cncnc1 (stereo unspecified) : 7.231
Cc1cccc(N2CCCC3(C2)CN(c2nncs2)CCO3)c1 (stereo unspecified) : -21.39
O=C1CC2(CCN(c3nncs3)C2)CN1c1ccc2c(c1)OCCO2 (stereo unspecified) : 105.6
O=C1CC2(CCN(Cc3cccs3)C2)CN1c1cccc(F)c1 (stereo unspecified) : 17.5

Data credit: ChEMBL document CHEMBL3988442
